Where do the numbers come from? From patent US20250277029A1.

Mean IC50 (nM), cAMP antagonist assay values by entry
molecular target: human cannabinoid receptor 1 (huCB1), full length, expressed on cells (human, UniProt P21554 1-472); test: cell-based or functional assay
Sequence (P21554 whole entry): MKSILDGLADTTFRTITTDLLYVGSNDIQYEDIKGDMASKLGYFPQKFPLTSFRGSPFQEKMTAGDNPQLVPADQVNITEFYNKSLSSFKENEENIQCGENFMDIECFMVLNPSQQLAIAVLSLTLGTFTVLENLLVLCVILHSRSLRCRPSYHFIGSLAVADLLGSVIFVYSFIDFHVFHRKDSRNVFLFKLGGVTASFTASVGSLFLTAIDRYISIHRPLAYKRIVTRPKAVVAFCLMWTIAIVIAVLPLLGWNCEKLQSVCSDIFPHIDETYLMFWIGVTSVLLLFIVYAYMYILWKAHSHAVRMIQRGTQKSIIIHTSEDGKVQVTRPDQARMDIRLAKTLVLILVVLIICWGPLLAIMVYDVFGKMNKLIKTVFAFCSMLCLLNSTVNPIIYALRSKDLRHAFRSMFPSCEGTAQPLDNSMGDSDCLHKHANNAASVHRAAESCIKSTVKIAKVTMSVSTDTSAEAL
Quick note: give the figure in nM, leave out the unit.

See these solved cases before continuing.
[[record]]
binder = "LIBC523857-1 (antibody, V domains shown) VH: QVQLQESGPGLVKPSQTLSLTCTVSGGSIRRGGDYWSWIRQHPGKGLEWIGHIYQTGQTAYNPRLEGRATISVNTYKNQFSLKLSSVTAADTAVYYCARDYDILTGYSYYYYGMDVWGQGTTVTVSS VL: DIVMTQSPLSLPVTPGEPASISCRSSQSLLSSTGANYLDWYLQKPGQSPQLLIYLGSNRASGVPDRFSGSGSGTDFTLKISRVEAEDVGVYYCRQAVELPRTFGQGTKVEIKR"
unit_text = "nM"
quantitative_result = 7.94

[[record]]
binder = "LIBC523670-1 (antibody, V domains shown) VH: QVQLQESGPGLVKPSQTLSLTCTVSGGSIRRGGDYWAWIRQHPGKGLEWIGHVYQTGQTAYNPNLESRATISVNTYKNQFSLKLSSVTAADTAVYYCARNYDVLSGYSYYYYGMDVWGQGTTVTVSS VL: DIVMTQSPLSLPVTPGEPASISCRSSQSLLTSYGANYLDWYLQKPGQSPQLLIYQGSNRASGVPDRFSGSGSGTDFTLKISRVEAEDVGVYYCMQALQIPRTFGQGTKVEIKR"
unit_text = "nM"
quantitative_result = 6.12

[[record]]
binder = "LIBC527919-1 (antibody, V domains shown, Expressed as IgG1 SEFL2 mAb) VH: QVQLQESGPGLVKPSQTLSLTCTVSGGSIRRGGDYWAWIRQHPGKGLEWIGHVYQTGSTAYNPNFKDRATISVNTYKNQFSLKLSSVTAADTAVYYCARNYDALSGYSYYYYGMDVWGQGTTVTVSS VL: DIQLTQSPSSLSASVGDRVTITCRASQSIISYLNWYQQKPGKAPKLLIYAASSLRSGVPSRFSGSGSGTDFTLTISSLQPEDFATYYCQQYSNYPLTFGGGTRVEIKR"
unit_text = "nM"
quantitative_result = 3.44


Any idea what its Mean IC50 (nM), cAMP antagonist assay is? The binder is LIBC527869-1 (antibody, V domains shown) VH: QVQLQESGPGLVKPSQTLSLTCTVSGGNIRRGGDYWAWIRQHPGKGLEWIGHIYHTGKTNYNPSFKGRATISVKTYKNQFSLKLSSVTAADTAVYYCARNYDTLSGNSYYYYGMDVWGQGTTVTVSS VL: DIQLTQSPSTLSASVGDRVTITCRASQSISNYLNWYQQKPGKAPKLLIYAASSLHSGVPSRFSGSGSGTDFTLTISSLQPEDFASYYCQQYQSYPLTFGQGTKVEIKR
47

Next: LIBC523862-1 (antibody, V domains shown) VH: QVQLQESGPGLVKPSQTLSLTCTVSGGSIRRGGDYWSWIRQHPGKGLEWIGHIYQTGSTAYNPSLKGRATISVNTYKNQFSLKLSSVTAADTAVYYCARDYDILTGYSYYYYGMDVWGQGTTVTVSS VL: DIVMTQSPLSLPVTPGEPASISCRSSQSLLHSTGANYVDWYLQKPGQSPQLLIYLGSNRASGVPDRFSGSGSGTDFTLKISRVEAEDVGVYYCRQAIALPRTFGQGTKVEIKR
7.31

Could you do the same for LIBC527984-1 (antibody, V domains shown) VH: QVQLQESGPGLVKPSQTLSLTCTVSGGSIRRGGDYWSWIRQHPGKGLEWIGHIYQTGKTNYNPNFKSRATISVNTYKNQFSLKLSSVTAADTAVYYCARDYDILTGYSYYYYGMDVWGQGTTVTVSS VL: DIQMTQSPSTLSASVGDRVTITCRASQSISNYLNWYQQKPGKAPKLLIYAASSLHSGVPSRFSGSGSGTDFTLTISSLQPEDFASYYCQQYQSYPLTFGQGTKVEIKR , please?
4.25

Please give the result for LIBC523603-1 (antibody, V domains shown) VH: QVQLQESGPGLVKPSQTLSLTCTVSGGSIRRGGDYWAWIRQHPGKGLEWIGHVYQSGQTAYNPNFENRATISVNTYKNQFSLKLSSVTAADTAVYYCARDYDAVSGYSYYYYGMDVWGQGTTVTVSS VL: DIVMTQSPLSLPVTPGEPASISCRSSQSLLSSYGNNYVDWYLQKPGQSPQLLIYQGSNRASGVPDRFSGSGSGTDFTLKISRVEAEDVGVYYCRQAVGLPRTFGQGTKVEIKR too.
4.72

Then what about the binder LIBC527827-1 (antibody, V domains shown) VH: QVQLQESGPGLVKPSQTLSLTCTVSGGSIRRGGDYWGWIRQHPGKGLEWIGHVYQSGQTAYNPKFENRATISVKTYKNQFSLKLSSVTAADTAVYYCARNYDTLTGHSYYYYGMDVWGQGTTVTVSS VL: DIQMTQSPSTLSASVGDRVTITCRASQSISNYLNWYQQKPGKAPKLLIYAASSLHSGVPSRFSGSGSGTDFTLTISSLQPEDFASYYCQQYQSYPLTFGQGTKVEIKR ?
23.7

Please answer likewise for LIBC523969-1 (antibody, V domains shown) VH: QVQLQESGPGLVKPSQTLSLTCTVSGGSIRRGGDYWSWIRQHPGKGLEWIGHIYQTGQTKYNPNLKGRATISVNTYKNQFSLKLSSVTAADTAVYYCARDYDILTGYSYYYYGMDVWGQGTTVTVSS VL: DIVMTQSPLSLPVTPGEPASISCRSSQSLLSSTGANYLDWYLQKPGQSPQLLIYQGSNRASGVPDRFSGSGSGTDFTLKISRVEAEDVGVYYCRQAVGLPRTFGQGTKVEIKR
3.86

Another binder to check: LIBC527912-1 (antibody, V domains shown) VH: QVQLQESGPGLVKPSQTLSLTCTVSGGSIRRGGDYWSWIRQHPGKGLEWIGYIYQTGQTKYNPNFEGRATISVNTYKNQFSLKLSSVTAADTAVYYCARDYDILTGYSYYYYGMDVWGQGTTVTVSS VL: DIQLTQSPSSLSASVGDRVTITCRASQSISSYLNWYQQKPGKAPKLLIYAASSLRSGVPSRFSGSGSGTDFTLTISSLQPEDFATYYCQQYSNYPLTFGGGTRVEIKR
3.95
